Kindly state FACS-Seq fitted mean (log10) for each of the entries shown.
B1: library; a variant is named by its letters at N, in order (parent)
chain: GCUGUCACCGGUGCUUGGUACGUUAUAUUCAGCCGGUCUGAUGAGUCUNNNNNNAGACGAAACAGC

# Variants of: B1
# RUN DESCRIPTION: FACS-Seq fitted mean relative fluorescence mCherry/BFP without ligand (log10 relative fluorescence); HEK293T overexpressing SLC46A1; higher = higher reporter protein expression
# MEASUREMENT CONDITIONS: without (6R,S)-folinic acid; ligand present: no
Answers are plain numbers.

Worked cases, answers included:
{"INPUT SEQUENCE": "GCUGUCACCGGUGCUUGGUACGUUAUAUUCAGCCGGUCUGAUGAGUCUAUCGACAGACGAAACAGC", "FACS-Seq fitted mean (log10)": 0.0463}
{"INPUT SEQUENCE": "GCUGUCACCGGUGCUUGGUACGUUAUAUUCAGCCGGUCUGAUGAGUCUGUACUCAGACGAAACAGC", "FACS-Seq fitted mean (log10)": 0.541}
{"INPUT SEQUENCE": "GCUGUCACCGGUGCUUGGUACGUUAUAUUCAGCCGGUCUGAUGAGUCUGGGUGAAGACGAAACAGC", "FACS-Seq fitted mean (log10)": 0.435}
{"INPUT SEQUENCE": "GCUGUCACCGGUGCUUGGUACGUUAUAUUCAGCCGGUCUGAUGAGUCUAUCAGUAGACGAAACAGC", "FACS-Seq fitted mean (log10)": -0.132}
{"INPUT SEQUENCE": "GCUGUCACCGGUGCUUGGUACGUUAUAUUCAGCCGGUCUGAUGAGUCUGUUCCAAGACGAAACAGC", "FACS-Seq fitted mean (log10)": 0.262}
{"INPUT SEQUENCE": "GCUGUCACCGGUGCUUGGUACGUUAUAUUCAGCCGGUCUGAUGAGUCUCGUAAAAGACGAAACAGC", "FACS-Seq fitted mean (log10)": 0.203}
{"INPUT SEQUENCE": "GCUGUCACCGGUGCUUGGUACGUUAUAUUCAGCCGGUCUGAUGAGUCUAAAGCAAGACGAAACAGC", "FACS-Seq fitted mean (log10)": 0.369}
{"INPUT SEQUENCE": "GCUGUCACCGGUGCUUGGUACGUUAUAUUCAGCCGGUCUGAUGAGUCUUCUGGGAGACGAAACAGC", "FACS-Seq fitted mean (log10)": 0.501}
{"INPUT SEQUENCE": "GCUGUCACCGGUGCUUGGUACGUUAUAUUCAGCCGGUCUGAUGAGUCUGUACUAAGACGAAACAGC", "FACS-Seq fitted mean (log10)": 0.314}
{"INPUT SEQUENCE": "GCUGUCACCGGUGCUUGGUACGUUAUAUUCAGCCGGUCUGAUGAGUCUGCAGCGAGACGAAACAGC", "FACS-Seq fitted mean (log10)": 0.175}

List the reported FACS-Seq fitted mean (log10) of each variant below.
1. GCUGUCACCGGUGCUUGGUACGUUAUAUUCAGCCGGUCUGAUGAGUCUAUGGUAAGACGAAACAGC
2. GCUGUCACCGGUGCUUGGUACGUUAUAUUCAGCCGGUCUGAUGAGUCUGGUUAGAGACGAAACAGC
3. GCUGUCACCGGUGCUUGGUACGUUAUAUUCAGCCGGUCUGAUGAGUCUAGAUUCAGACGAAACAGC
4. GCUGUCACCGGUGCUUGGUACGUUAUAUUCAGCCGGUCUGAUGAGUCUGAGCAUAGACGAAACAGC
5. GCUGUCACCGGUGCUUGGUACGUUAUAUUCAGCCGGUCUGAUGAGUCUGUAGGGAGACGAAACAGC
6. GCUGUCACCGGUGCUUGGUACGUUAUAUUCAGCCGGUCUGAUGAGUCUGGAAAAAGACGAAACAGC
7. GCUGUCACCGGUGCUUGGUACGUUAUAUUCAGCCGGUCUGAUGAGUCUCCUAAGAGACGAAACAGC

Return:
0.132
0.215
0.551
0.407
0.666
0.526
0.536
